Molecular target: T1, PC2, P16519
T1 chain: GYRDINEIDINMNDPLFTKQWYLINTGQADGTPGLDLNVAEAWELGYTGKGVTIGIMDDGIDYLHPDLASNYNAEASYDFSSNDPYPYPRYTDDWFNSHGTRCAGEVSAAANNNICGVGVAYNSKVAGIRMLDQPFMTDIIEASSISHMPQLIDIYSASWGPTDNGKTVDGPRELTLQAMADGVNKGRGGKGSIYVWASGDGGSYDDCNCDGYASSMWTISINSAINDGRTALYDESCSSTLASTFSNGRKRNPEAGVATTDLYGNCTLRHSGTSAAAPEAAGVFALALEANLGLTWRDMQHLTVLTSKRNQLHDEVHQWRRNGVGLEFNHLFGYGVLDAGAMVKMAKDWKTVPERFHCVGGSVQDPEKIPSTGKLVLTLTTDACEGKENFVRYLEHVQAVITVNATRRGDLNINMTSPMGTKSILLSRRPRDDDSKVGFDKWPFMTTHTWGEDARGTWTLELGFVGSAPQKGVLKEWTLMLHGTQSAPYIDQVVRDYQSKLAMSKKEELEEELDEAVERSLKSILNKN
Conditions: modification not given
reported endpoint: pKi
Remember the convention: pKi equals -log10 of concentration in molar.

Record Ac-MHKRRR-NH2 [Ac-MHKRRR-NH2] . Reported pKi: 3.67

These entries and their values trace back to patent US7033991.
